Tested on: NHDF
Assay: Cytotoxicity of the prodrug in human cells (CellTiter-Glo 2.0), NHDF
Format: cell-based
Details: 10 µM, versus untreated control; mean ± SD
Method: Compound cytotoxicity was evaluated in nontumor human dermal fibroblasts (NHDF), CCRF‐CEM, HL‐60, HeLa, and HepG2 cells. All cell lines were obtained from ATCC (Manassas, VA, USA). The cytotoxicity was assayed using CellTiter‐Glo 2.0 detection reagent (Promega, Madison, USA) according to the manufacturer's protocol. The concentration of prodrug used in this assay was 10 μM. This concentration was chosen as it would more accurately reflect the expected concentration in an in vitro assessment.
measurementName: Viability NHDF (% control)
Quick reminder: number only, in % control, skip the unit.

- CCOC(=O)[C@H](Cc1ccccc1)NP(=O)(CCOCC(OCCOCP(=O)(N[C@@H](Cc1ccccc1)C(=O)OCC)N[C@@H](Cc1ccccc1)C(=O)OCC)n1cnc2c(=O)[nH]cnc21)N[C@@H](Cc1ccccc1)C(=O)OCC (some centres unmarked) [19a]: 114
- CCOC(=O)[C@H](Cc1ccccc1)NP(=O)(COCC(OCCO)n1cnc2c(=O)[nH]c(N)nc21)N[C@@H](Cc1ccccc1)C(=O)OCC (mixture of isomers) [21b]: 94
- CCOC(=O)[C@H](Cc1ccccc1)NP(=O)(CCOCC(OCCO)n1cnc2c(=O)[nH]cnc21)N[C@@H](Cc1ccccc1)C(=O)OCC (some centres unmarked) [21c]: 102
- CCOC(=O)[C@H](Cc1ccccc1)NP(=O)(COCCC(OCCCO)n1ncc2c(=O)[nH]cnc21)N[C@@H](Cc1ccccc1)C(=O)OCC (some centres unmarked) [21g]: 114

In the following, a different molecule is considered.
Specify measured Viability NHDF for CCOC(=O)[C@H](Cc1ccccc1)NP(=O)(COCCC(OCCCO)n1cnc2c(=O)[nH]c(N)nc21)N[C@@H](Cc1ccccc1)C(=O)OCC (some centres unmarked) [21f] .
116
